# test system: M3 receptor (Homo sapiens, UniProt P20309)
# Construct: HT-29 cell model endogenously highly expressing the M3 receptor; endogenous in cells
# Sequence (P20309 whole entry): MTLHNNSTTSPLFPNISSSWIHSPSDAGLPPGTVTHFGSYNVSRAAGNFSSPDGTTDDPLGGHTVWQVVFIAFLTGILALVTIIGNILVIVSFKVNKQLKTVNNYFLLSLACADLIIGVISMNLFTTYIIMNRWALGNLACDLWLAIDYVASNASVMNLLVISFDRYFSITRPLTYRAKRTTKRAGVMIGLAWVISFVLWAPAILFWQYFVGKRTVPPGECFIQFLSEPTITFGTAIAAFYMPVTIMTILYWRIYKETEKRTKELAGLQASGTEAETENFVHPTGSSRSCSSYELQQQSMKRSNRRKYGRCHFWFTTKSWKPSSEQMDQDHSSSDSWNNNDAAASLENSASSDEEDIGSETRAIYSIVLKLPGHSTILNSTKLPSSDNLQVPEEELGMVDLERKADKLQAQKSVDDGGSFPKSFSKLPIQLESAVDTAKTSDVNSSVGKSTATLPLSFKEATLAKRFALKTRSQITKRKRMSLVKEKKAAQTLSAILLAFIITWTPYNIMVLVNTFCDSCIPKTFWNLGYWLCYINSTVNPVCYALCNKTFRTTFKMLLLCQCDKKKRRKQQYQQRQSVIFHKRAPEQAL
# assay remarks: DMR assay, antagonism of acetylcholine in HT-29 cells endogenously expressing the M3 receptor
# assay context: HT-29 cells, DMR, acetylcholine 16 μM, 1 h pretreatment, time point 30 min
# Text: The present invention relates to the antagonistic activity of the compound against the muscarinic receptor, which is primarily assessed by a cell-level dynamic mass redistribution (DMR) assay method. […]
Counter-ions that a name gives are not always drawn.
Overview of recorded IC50 for various compounds
Write down the numeric answer in nM and omit the unit.

Worked cases, IC50 given:
1. CN1CCCCC1CC(c1ccccc1O)c1ccccc1O (stereo not shown) [I-3-Cl, Hydrochloride] | 66.2
2. Cc1ccc(O)c(C(CC2CCCC[N+]2(C)C)c2ccccc2)c1 (single isomer, unassigned) [I-4b-Br] | 47.7
3. C[N+]1(C)CCCCC1CC(c1ccccc1O)c1ccccc1O (racemic) [I-3-Br] | 15.4

--- query ---
*Q* Which IC50 reading was recorded for the compound CC(=O)Oc1ccc(C)cc1C(CC1CCCCN1C)c1ccccc1 (stereo not shown) ?
*A* 1210

###

# test system: M3 receptor (Homo sapiens, UniProt P20309)
# Construct: HT-29 cell model endogenously highly expressing the M3 receptor; endogenous in cells
# assay remarks: DMR assay, antagonism of acetylcholine in HT-29 cells endogenously expressing the M3 receptor
# assay context: HT-29 cells, DMR, acetylcholine 16 μM, 1 h pretreatment, time point 30 min
Overview of recorded IC50 for various molecules
Write down the numeric answer in µM and omit the unit.

*Q* Which IC50 reading was recorded for the molecule Cc1ccc(OC(=O)C(C)C)c(C(CC2CCCC[N+]2(C)C)c2ccccc2)c1 (stereo not drawn) ?
*A* 0.79

*Q* Which IC50 reading was recorded for the molecule CN1CCCCC1CC(c1ccccc1)c1cccs1 (stereo not drawn) ?
*A* 2.42

*Q* Which IC50 reading was recorded for the molecule CCc1ccc(O)c(C(CC2CCCN2C)c2ccccc2)c1 (stereo not drawn) ?
*A* 0.258

Origin of values: patent US11274079B2
